The measurements presented in this section are drawn from PubChem BioAssay (NCI).

# System: A498 renal
# test protocol: NCI-60 one-dose screen, 48 h
# experimental parameters: 10 µM unless noted
# Procedure: Growth inhibition of the A498 human tumor cell line is measured as a screen for anti-cancer activity. Cells are grown in 96 well plates and exposed to the test compound for 48 hours. Compounds are tested at a single concentration, which is 10^-5 M for most compounds. The reported endpoint is percent growth (GI% or GIPRCNT), where numbers from 0 - 100% represent growth inhibition, and numbers from -100% - 0 represent cell death. For example, a value of 40 represents 60% growth inhibition. […]
This is part of a sample that, as a whole, favours compounds with a hit. Of some 83,000 tested, about 20% had one in any assay. Active and inactive are the calls of the source. The calls were made as follows: active = growth percent below 10; inactive = the rest.
Pick one and only one: active, inactive

compound: Oc1c(Br)c(Br)c(O)c(Br)c1Br
class name: inactive
//
compound: Cc1ccc2nc(-[n+]3cc4ccccc4cc3C)ccc2c1
class name: inactive
//
compound: CC(=Nc1ccc(N(C)C)cc1)c1ccccc1
class name: inactive

Exercise: How did this test come out for COC(=O)[C@@]12OC[C@]34[C@H]([C@@H](O)[C@@H]1O)[C@@]1(C)[C@H](O)C(=O)C=C(C)[C@@H]1C[C@H]3OC(=O)C(OC(C)=O)[C@@H]24 (stereo partly specified) ?
Solution: active

Exercise: For O=C(CC1(O)C(=O)Nc2c(Cl)ccc(Cl)c21)c1ccc(Cl)cc1Cl (stereo unspecified) then?
Solution: inactive

Exercise: For Cc1ccc(N=C=C(c2ccccc2)c2ccccc2)cc1 then?
Solution: inactive
